For each entry below, report its abundance fitness value.
B1: Calcium-binding protein 2, residues 155 to 219; numbered along this chain, Q9NPB3 (parent)
chain: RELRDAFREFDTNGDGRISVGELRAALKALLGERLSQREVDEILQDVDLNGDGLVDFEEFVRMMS

# Variants of: B1
# procedureText: abundance fitness (aPCA) (normalised: wild type 0, dead -1); higher = more abundant; growth selection in yeast, the domain comes from the species named
# condition: Homo sapiens
The reply should be a number, written without any unit.

Query: Consider the variant RELRDAFREFDTNGDGRISVGELRAALKALLGERLSKREVDEILQDVDLNGDGLVDFEEFVRMMS [Q37K] and give its recorded abundance fitness.
Response: 0.022

Query: Consider the variant RELRDAFREFDTNCDGRISVGELRAALKALLGERLSQREVDEILQDVDLNGDGLVDFEEFVRMMS [G14C] and give its recorded abundance fitness.
Response: -0.264

Query: Consider the variant RELRDAFREFDTNGDGRISVGELRAALKALLGERLSQREVDEIEQDVDLNGDGLVDFEEFVRMMS [L44E] and give its recorded abundance fitness.
Response: -0.123

Query: Consider the variant RELRDAFREFDTNGDGRISVGELRAALKALLGERLSQREEDEILQDVDLNGDGLVDFEEFVRMMS [V40E] and give its recorded abundance fitness.
Response: 0.169

Query: Consider the variant RELRDAFREFDTNGDGRISVGELRAAHKALLGERLSQREVDEILQDVDLNGDGLVDFEEFVRMMS [L27H] and give its recorded abundance fitness.
Response: -0.091

Query: Consider the variant RELRDAYREFDTNGDGRISVGELRAALKALLGERLSQREVDEILQDVDLNGDGLVDFEEFVRMMS [F7Y] and give its recorded abundance fitness.
Response: -0.259

Query: Consider the variant RELRAAFREFDTNGDGRISVGELRAALKALLGERLSQREVDEILQDVDLNGDGLVDFEEFVRMMS [D5A] and give its recorded abundance fitness.
Response: -0.226

Query: Consider the variant RELRDAFREFDTNGDGRISVGELRAALKALLGERLSRREVDEILQDVDLNGDGLVDFEEFVRMMS [Q37R] and give its recorded abundance fitness.
Response: -0.087

Query: Consider the variant RELRDAFREFDTNGDGRISVGELRAALKALLGERLSQREVDEILQDVDLNGDGLVDFEYFVRMMS [E59Y] and give its recorded abundance fitness.
Response: -0.157

Query: Consider the variant RELRDAFREFDTNGDGRISVGELRAALKALLGERLSQREVDEILQDVDLNGDGLVDFEEFVNMMS [R62N] and give its recorded abundance fitness.
Response: -0.111

Query: Consider the variant RELRDARREFDTNGDGRISVGELRAALKALLGERLSQREVDEILQDVDLNGDGLVDFEEFVRMMS [F7R] and give its recorded abundance fitness.
Response: -0.995

Query: Consider the variant RELRDAFREWDTNGDGRISVGELRAALKALLGERLSQREVDEILQDVDLNGDGLVDFEEFVRMMS [F10W] and give its recorded abundance fitness.
Response: -0.076

Query: Consider the variant SELRDAFREFDTNGDGRISVGELRAALKALLGERLSQREVDEILQDVDLNGDGLVDFEEFVRMMS [R1S] and give its recorded abundance fitness.
Response: -0.113

Query: Consider the variant RELRDAFREFDTNGDGRISVGELRAALKALLGERLSQREVDEILQDVDLNGDGLVDFEEFVRMKS [M64K] and give its recorded abundance fitness.
Response: -0.075

Query: Consider the variant RELRWAFREFDTNGDGRISVGELRAALKALLGERLSQREVDEILQDVDLNGDGLVDFEEFVRMMS [D5W] and give its recorded abundance fitness.
Response: -0.491

Query: Consider the variant RELRDAFREFDTNGDGRISVGELRAALKALLGERLSQREVDEILQDVDLNGDGLVDFEEFVRVMS [M63V] and give its recorded abundance fitness.
Response: 0.047

Query: Consider the variant RELRDAFREFDTNGDGRISVWELRAALKALLGERLSQREVDEILQDVDLNGDGLVDFEEFVRMMS [G21W] and give its recorded abundance fitness.
Response: -0.423

Query: Consider the variant RELRDAFREFDTNGDGRISVGELRAALKALLGERLSQREVDEILQKVDLNGDGLVDFEEFVRMMS [D46K] and give its recorded abundance fitness.
Response: -0.148

Query: Consider the variant RELRDAFREFDTNGDGRISVGELRAALKAELGERLSQREVDEILQDVDLNGDGLVDFEEFVRMMS [L30E] and give its recorded abundance fitness.
Response: -0.091

Query: Consider the variant RELRDAFREFDTNGDGRISVGELRAAVKALLGERLSQREVDEILQDVDLNGDGLVDFEEFVRMMS [L27V] and give its recorded abundance fitness.
Response: 0.092

Query: Consider the variant RELRDAFREFDTNGDGRISVGELRYALKALLGERLSQREVDEILQDVDLNGDGLVDFEEFVRMMS [A25Y] and give its recorded abundance fitness.
Response: -0.159

Query: Consider the variant RELRDAFREFDTNGDGRISVGELRAALKALLGERLSQREVDYILQDVDLNGDGLVDFEEFVRMMS [E42Y] and give its recorded abundance fitness.
Response: -0.309

Source of measurements: the Human Domainome abundance scans (Beltran et al. 2025)
